Where do these numbers come from? They come from patent US10202593B2.

- Tested on: LPESG (Abz-LPESGK(Dnp)-CONH2)
- experiment-description: In vitro sortase kinetics HPLC assay, LPESG substrate
- Assay type: biochemical
- details: Example 5 variants; substrate 4S (LPESG); read-out: Avg KM
Task for the reader: assign each of the following molecules its reported Km.
Express the result in µM but write the number alone.

Prompt: # return recorded Km for entry eSrtA(4S-4): 5mut + A104V A118T F122S I182V (protein) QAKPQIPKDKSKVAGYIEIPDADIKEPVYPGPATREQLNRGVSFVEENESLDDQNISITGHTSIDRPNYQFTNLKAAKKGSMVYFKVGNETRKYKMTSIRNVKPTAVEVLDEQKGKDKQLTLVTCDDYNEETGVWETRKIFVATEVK
Response: 1560

Prompt: # return recorded Km for entry eSrtA(4S-5): 5mut + N98D A104V A118T F122A K134R I182V (protein) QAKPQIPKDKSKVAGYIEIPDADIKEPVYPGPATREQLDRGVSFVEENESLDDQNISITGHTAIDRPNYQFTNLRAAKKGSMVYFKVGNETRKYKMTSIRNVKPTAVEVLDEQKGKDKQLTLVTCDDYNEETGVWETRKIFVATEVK
Response: 76

Prompt: # return recorded Km for entry eSrtA(4S-3.5) (protein) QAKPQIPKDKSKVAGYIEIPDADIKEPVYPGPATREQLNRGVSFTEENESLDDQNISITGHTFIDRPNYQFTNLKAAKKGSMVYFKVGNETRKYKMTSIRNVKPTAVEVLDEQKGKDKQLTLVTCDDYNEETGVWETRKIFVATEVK
Response: 38800

Prompt: # return recorded Km for entry eSrtA(4S-9): P94R, N98D, S102C, A104V, A118T, F122A, K134R, F144L, D160N, D165A, I182V, E189F, K190E, K196T (protein) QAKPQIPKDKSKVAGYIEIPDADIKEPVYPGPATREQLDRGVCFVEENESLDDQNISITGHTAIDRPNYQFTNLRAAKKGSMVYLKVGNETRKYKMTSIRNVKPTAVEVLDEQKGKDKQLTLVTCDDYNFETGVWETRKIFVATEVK
Response: 123
